Tested on: RARa homodimer (NR concentration 270 nM)
Test: PBM binding z-score (relative to random genomic background probes); higher = stronger binding; sequences stand for … in GC…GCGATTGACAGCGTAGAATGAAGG
Please provide measured PBM binding z-score for the entries that follow.
Numbers only.

Each sequence below has a recorded value; state its PBM binding z-score.
1. TCATATAGGTAAATGCGAGGTGAAAGTCCGATCT
2. CTAACAAGGTGAACAAGGTCGTTGATTACTATTC
3. CAACCTAGGTCAAGAGGTCAAAGTCCGCTTCCCG
4. GCTCGGAGGACAAGGTCAGCGCTTTGTCCGTAGA
5. GCTGGTAGGTCAACTGATGGTCAGCTAAAGCTCG
6. TTACCAAGGTGAAGATCGTTGATCCCTCTGTAGA

1: 1.15; 2: 0.514; 3: 2.15; 4: -0.859; 5: 1.16; 6: -0.66

Each sequence below has a recorded value; state its PBM binding z-score.
1. AGACTGAGGTTATTAAGATCAGGGAATTGCGGTC
2. CAAACTAGGTCATAGGTCAAAGTCGAGCCAACCA
3. ATCTCTAGGTAACAAGATCAGTGAAAGAGAGGAC

[0.126, 0.929, 1.1]

---

Tested on: RARb homodimer (NR concentration 270 nM)
Assay: PBM binding z-score (relative to random genomic background probes); higher = stronger binding; sequences stand for … in GC…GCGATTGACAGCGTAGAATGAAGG
MEASURED_ATTRIBUTE: PBM binding z-score
Numbers only.

Example sequences with recorded PBM binding z-score:
TTACCAAGGTGAAAGTTCGTTGATGCACGCCTTG = 1.67
TCTCGGAAGACACGAAGGTCAGAGCTTTCCAGAG = 3.02
GGAACGAGGGCAAATTGATAGCAGAGTTTGATGG = 1.18
TCTCGGAGAACACGAAAGGTCAGAGCTCGACATC = 4.31
CCTATTAGTTGACCATAAGGGCAACCCAAGCTCG = 2.32
TCGAGTAGGTTACCAATGGGGCATTCGGCTTTCT = 0.464

Each sequence below has a recorded value; state its PBM binding z-score.
1. TTGCCTAGGTCATGCGGGCCAGTATAGTGTCGGC
2. TCTCGCAGGACACGAAGGTCAGAGCTTTCCAGAG
3. TCATATAGGTAAAGGTGAAAGACGAACGATATGA

[2.96, 3.18, 0.974]

Each sequence below has a recorded value; state its PBM binding z-score.
1. CCTACTGGGCCAAGGTCATTAATCAGTCAAAGCA
2. AGAACGAGGGCAATGAGTTGATAGCACGGGTGGC

1. 3.03
2. 0.844

Answer with the recorded PBM binding z-score of AATCAAAGTTCAGGACGAGGTAACGTAAAGCACG only.
3.22

---

Test system: PPARa:RXRa (NR concentration 270 nM, RXRa partner concentration 90 nM)
Assay: PBM binding z-score (relative to random genomic background probes); higher = stronger binding; sequences stand for … in GC…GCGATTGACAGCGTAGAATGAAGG
// not fulfilled strictly below 5 in PBM binding z-score; fulfilled otherwise

Use the examples below as a reference point.
CGTGCAAGGTCAATGCTAGGTCAGTGAAAGCATT = fulfilled
TAGCCTAGGTCAGATCGGGCCAGTATTCGCTATA = not fulfilled
ATGGAAAGGTCGAAGGTGAGTATACCCACCCGAA = not fulfilled
ACTATTAGTTGAGACGAGGGCAACTGATAGGTTG = not fulfilled
CGAACTAGGTCAGAATAGGACAGTGAAGGATGAT = not fulfilled

Attention now turns to another entry.
Decide: PBM binding z-score of CCTTACGGGTCAAGAGGTTATAGCACGACGAGCG >= 5?
fulfilled

---

Please provide measured PBM binding z-score for the entries that follow.
Tested on: PPARg:RXRa 90nM:30nM, anti-RXR (NR concentration 90 nM, RXRa partner concentration 30 nM)
Test: PBM binding z-score (relative to random genomic background probes); higher = stronger binding; sequences stand for … in GC…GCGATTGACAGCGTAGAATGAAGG
One number for each entry.

GTACCAAGGTGAATAGGCCGTTGATGAGTAGGCG = 0.38
TCATATAGGTAAAAGGTGAAAGACGGTGTGGTAA = 10.6

Each sequence below has a recorded value; state its PBM binding z-score.
1. ATCGAAAGGTCGAAGAGGTGAGTATACACCGTTT
2. CGAACTAGGTCATTGCCAGGACAGTGAATAGTAA
3. ACTTACGGGTCGACGAGGTTATAGCACGCGTATA

[2.03, 5.51, 0.729]

Each sequence below has a recorded value; state its PBM binding z-score.
1. CTAGACAGGTGAAAGGTAACTCAGTCTGGTACGC
2. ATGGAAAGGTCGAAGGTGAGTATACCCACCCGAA
3. TTACCACGGTGAAGGTCGTTGATCCCTCTGTAGA

1. 6.47
2. 4.32
3. 1.24

Each sequence below has a recorded value; state its PBM binding z-score.
1. AGAACGAGGGCAATGAGTTGGTAGCACGGGTGGC
2. CGGACTGGGGCATAAGGTTACCATAAGCCAGCCC
3. ACTTACGGGTCAACGAGGTTCTAGCACGCGTATA
4. TTAGACAGGTGAAGGTAACTCAGGTACGCAGTCG
5. GCTTGTAGATCAAGGTTAAGAATGACTAAGCTAA
6. CATACAGGGTCAGCTAGGCCGGAGTAGGGACGGC

0.196
4.56
3.67
1.54
1.72
1.69

Each sequence below has a recorded value; state its PBM binding z-score.
1. GCTAGCAGGCCATTTGGGTCACGCAATGACGGGC
2. AGAATGAGGTTACCAAAGAGCAGGGAAACGCTTG
3. TCTAGTTGGTCAAATGTCACACACTCGAAATGCG
4. TCTTGTAGATCAATATAGGTTAAGAAAGTGCGCT

1: 0.648; 2: 1.44; 3: 7.55; 4: 2.56

Each sequence below has a recorded value; state its PBM binding z-score.
1. ACAGAAAGGTGATGAAGGTAACTCAGGCTATCAT
2. TGAATGAGGTTAGAGATCAGGGAACGTGGCGTCG
3. CAAACTAGATCACAGAGGTCAAAGTCCGTGCGTA
4. TCATATAGGTAAAAGGTGAAGGTCGGTGTGGTAA
5. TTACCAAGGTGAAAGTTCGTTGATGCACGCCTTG
6. GCGAGTGGGGCAAAGCAGGTTACCATAAGGTTGG

1: 0.787; 2: 4.07; 3: 4.09; 4: 8.44; 5: 6.63; 6: 0.35

Each sequence below has a recorded value; state its PBM binding z-score.
1. CCTACTGGACCATCAGGTCATTGATATCAACGTT
2. CATACAGGGTCAGCTAAGCCAGAGTAGGGACGGC
3. CGTCCAAGCTCAATGCTAGGTCAGTGAAAGCATT
4. TCTTGTAGACCAAGCAGGTTAAGAAAGCCTGAGT
5. GCAACGAGGGCATTCGAGTTGATAGCATGGCGAT

[1.68, 1.9, -0.627, 1.77, -0.307]

Each sequence below has a recorded value; state its PBM binding z-score.
1. ATCGAAAGGTTGAGGTGAGTATAGAGAAAGGGAA
2. CCAGACAGGTGAAAGGTAACTTAGTCTGGTACGC

0.337
5.77

Each sequence below has a recorded value; state its PBM binding z-score.
1. TCTAGTTGGTCACGGAGGTCACACATGACGGGTA
2. CTCGAAAGGTCGGTTGAGCTGAGTATACGGATAA
3. TAGCCCAGGTCATTGGGCCAGTATAGTACGCATC
4. GCTAGCTGGTCAGTAAAAGGTCACACACCGGTCG

3.84
0.207
2.6
3.75

---

Please provide measured PBM binding z-score for the entries that follow.
Tested on: VDR:RXRa (NR concentration 270 nM, RXRa partner concentration 90 nM)
Experiment: PBM binding z-score (relative to random genomic background probes); higher = stronger binding; sequences stand for … in GC…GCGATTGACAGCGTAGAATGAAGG
Give bare numbers.

Example sequences with recorded PBM binding z-score:
GCTTGTAAATCAAGGTTAAGAAAGACTAAGCTAA = 0.379
TCATCTAGGTAATACAGGTGAAAGTCGGCATCTA = 0.916
GGAACGAGGGTAAGTTGATAGCAGAGTTTGATGG = -0.217
CGAACTAGGTCATTGACAGGACAGTGCATAGTAA = 2.5
TCGAGTAGGTTAGTCAGGGCATTCAGCCAACATA = 2.59

Attention now turns to another entry.
Answer with the recorded PBM binding z-score of ATCTCTGGGTAAAAGTTCAGTGAATCCCGAGGAT only.
1.25
